Parameter: Activity. Scope: all listed entries.
# Measurement description: Antioxidant activity assessed as ferric ion reduction by measuring FeSO4 equivalents reducing Fe3+-TPTZ to Fe2+-TPTZ at 80 ug/ml after 25 mins by FRAP assay
# Assay type: functional
Quantity name: Activity

1. Nc1nc(N2CCOCC2)sc1C(=O)c1cc2ccccc2oc1=O | 384 µMequiv
2. Nc1nc(N2CCN(Cc3ccccc3)CC2)sc1C(=O)c1cc2ccccc2oc1=O | 229 µMequiv
3. O=C1O[C@H]([C@@H](O)CO)C(O)=C1O | 397 µMequiv
4. Nc1nc(N2CCSCC2)sc1C(=O)c1cc2ccccc2oc1=O | 455 µMequiv
5. Nc1nc(N2CCOCC2)sc1C(=O)c1cc2cc(Br)ccc2oc1=O | 212 µMequiv
6. Nc1nc(N2CCSCC2)sc1C(=O)c1cc2cc(Br)ccc2oc1=O | 164 µMequiv
